Tested on: mice
Assay: Spontaneous locomotor activity in mice (photoresistor actometers)
Format: in vivo
Conditions: i.p., dose 100 mg/kg
Description: The experiments were carried out on male albino Swiss mice (body weight 18–26 g). All of the animals were housed at constant humidity (60%) and temperature (25 °C) and kept on a 12 h light/dark cycle. Animals were fed a standard pellet diet with free access to tap water. […] Spontaneous locomotor activity in mice was measured in circular photoresistoractometers (32 cm in diameter). […] Each crossing of the light beam was recorded automatically. […]
Quantity: Number of impulses ± SEM (30min)

Below, 4 molecules whose answers are already recorded.
> print(dat)
                                   molecule  value.measured
1  COc1nc(C)cc2c1C(=O)N(CN1CCN(c3cccc(Cl)c3)CC1)C2=O [Compound 13]        299 ± 49
2  CCOc1nc(C)cc2c1C(=O)N(CCN1CCN(c3ccccc3)CC1)C2=O [Compound 10]        142 ± 29
3  CCOc1nc(C)cc2c1C(=O)N(CCN1CCN(c3ccccc3OC)CC1)C2=O [Compound 12]        180 ± 41
4  CCOc1nc(C)cc2c1C(=O)N(CN1CCN(c3cccc(Cl)c3)CC1)C2=O [Compound 14]        210 ± 40

Kindly consider the entry below.
IN: Check the records and state Number of impulses ± SEM (30min) for COc1nc(C)cc2c1C(=O)N(CN1CCN(c3ccccc3Cl)CC1)C2=O [Compound 15]
OUT: 203 ± 39

###

pKi, µ receptor of the rat cerebral cortex (Rattus norvegicus), per-entry values.
Just so you know, pKi here is -log10 of the concentration in molar units; reply with that number alone.

> print(dat)
                                item.smiles  value.measured
1  COc1nc(C)cc2c1C(=O)N(CN1CCc3ccccc3C1)C2=O            4.86

Attention now turns to another entry.
IN: State, for µ receptor of the rat cerebral cortex (Rattus norvegicus), measured pKi of the compound listed here: COc1ccccc1N1CCN(CCCN2C(=O)c3cc(C)nc(OC)c3C2=O)CC1
OUT: 4.51

###

Test system: mice
Assay: “Hot plate” test in mice
Assay type: in vivo
Details: hot plate, mice, dose 100 mg/kg
Quantity: Time of Reaction to Pain Stimulus (s) ± SEM
Numbers only; they are read as s.

Would you please look over these solved cases?
> print(dat)
                                   compound  unit.of.measure  value.measured
1  CCOc1nc(C)cc2c1C(=O)N(CCN1CCN(c3ccccc3)CC1)C2=O [Compound 10]                s            18.4
2  CCOc1nc(C)cc2c1C(=O)N(CN1CCN(c3cccc(Cl)c3)CC1)C2=O [Compound 14]                s            17.6

IN: Please give the documented Time of Reaction to Pain Stimulus (s) ± SEM of COc1nc(C)cc2c1C(=O)N(CN1CCN(c3ccccc3Cl)CC1)C2=O [Compound 15]
OUT: 17.0

###

Let's look at some compounds and their measured inhibition at 25 mg/kg.
System: mice
Test: Spontaneous locomotor activity in mice (photoresistor actometers)
Type: in vivo
Settings: Mus musculus, ip, dose 25 mg/kg, read-out: Degree of motor inhibition (%)
Procedure: The experiments were carried out on male albino Swiss mice (body weight 18–26 g). All of the animals were housed at constant humidity (60%) and temperature (25 °C) and kept on a 12 h light/dark cycle. Animals were fed a standard pellet diet with free access to tap water. […] Spontaneous locomotor activity in mice was measured in circular photoresistoractometers (32 cm in diameter). […] Each crossing of the light beam was recorded automatically. […]
// unit must come after the numeric part

// solved cases for inhibition at 25 mg/kg follow
> print(dat)
                                   compound  value.measured
1  COc1nc(C)cc2c1C(=O)N(CN1CCN(c3ccccc3Cl)CC1)C2=O [Compound 15]           9.52%
2  CCOc1nc(C)cc2c1C(=O)N(CCN1CCN(c3ccccc3OC)CC1)C2=O [Compound 12]           11.8%
3  COc1ccccc1N1CCN(CCN2C(=O)c3cc(C)nc(OC)c3C2=O)CC1 [Compound 11]           55.9%
4  CCOc1nc(C)cc2c1C(=O)N(CCN1CCN(c3ccccc3)CC1)C2=O [Compound 10]           49.2%
5  CCOc1nc(C)cc2c1C(=O)N(CN1CCN(c3cccc(Cl)c3)CC1)C2=O [Compound 14]           10.7%

The record that follows has no inhibition at 25 mg/kg shown yet.
IN: Report inhibition at 25 mg/kg from mice testing of COc1nc(C)cc2c1C(=O)N(CCCCN1CCOCC1)C2=O [Compound 8]
OUT: 35.4%

###

Test system: mice
Experiment: “Hot plate” test in mice
Type: in vivo
Conditions: hot plate, mice, dose 100 mg/kg
Description: The experiments were carried out on male albino Swiss mice (body weight 18–26 g). All of the animals were housed at constant humidity (60%) and temperature (25 °C) and kept on a 12 h light/dark cycle. Animals were fed a standard pellet diet with free access to tap water. […] The statistical significance was calculated using a Student’s t-test. The ED50 values and their confidence limits were calculated according to the method of Litchfield and Wilcoxon. […]
Quantity: Time of Reaction to Pain Stimulus (s) ± SEM
I only need the number, in s, no unit after it.

Examples from the recorded data:
> print(dat)
                                   compound  value.measured
1    COc1nc(C)cc2c1C(=O)N(CCCCN1CCOCC1)C2=O            10.2
2  COc1ccccc1N1CCN(CCN2C(=O)c3cc(C)nc(OC)c3C2=O)CC1            24.0
3  COc1nc(C)cc2c1C(=O)N(CN1CCN(c3cccc(Cl)c3)CC1)C2=O            17.9

IN: Enter measured Time of Reaction to Pain Stimulus (s) ± SEM, system mice, for the compound shown: CCOc1nc(C)cc2c1C(=O)N(CCN1CCN(c3ccccc3OC)CC1)C2=O
OUT: 22.1

IN: Send back mice Time of Reaction to Pain Stimulus (s) ± SEM of CC(=O)Oc1ccccc1C(=O)O [ASA, Acetylicacid, reference compound] only.
OUT: 16.2

###

Tested on: mice
Experiment: “Hot plate” test in mice
Type: in vivo
Conditions: hot plate, mice, dose 200 mg/kg
Please note: Time of Reaction to Pain Stimulus (s) ± SEM exactly at 20 s is Condition not met. Only values below 20 s get Condition met.

> print(dat)
                                item.smiles  assayed.system        label.class
1  CCOc1nc(C)cc2c1C(=O)N(CCN1CCN(c3ccccc3)CC1)C2=O            mice  Condition not met

IN: Here's an entry: COc1nc(C)cc2c1C(=O)N(CN1CCN(c3cccc(Cl)c3)CC1)C2=O . Is its Time of Reaction to Pain Stimulus (s) ± SEM below 20 s?
OUT: Condition met

IN: API: query returns whether the compound falls strictly under 20 s in Time of Reaction to Pain Stimulus (s) ± SEM. Query: COc1ccccc1N1CCN(CCN2C(=O)c3cc(C)nc(OC)c3C2=O)CC1
OUT: Condition not met

IN: Hello, I'm reviewing records and need to know if Time of Reaction to Pain Stimulus (s) ± SEM of CCOc1nc(C)cc2c1C(=O)N(CCN1CCN(c3ccccc3OC)CC1)C2=O is below 20 s. Could you check?
OUT: Condition not met

IN: Does this compound meet the criterion Time of Reaction to Pain Stimulus (s) ± SEM < 20 s? COc1nc(C)cc2c1C(=O)N(CCCCN1CCOCC1)C2=O
OUT: Condition met

###

Tested on: mice
Assay: “Hot plate” test in mice
Format: in vivo
Conditions: hot plate, mice, dose 200 mg/kg
Quantity: Time of Reaction to Pain Stimulus (s) ± SEM

Previously resolved entries follow.
> print(dat)
                                   molecule  value.measured
1  CCOc1nc(C)cc2c1C(=O)N(CN1CCN(c3cccc(Cl)c3)CC1)C2=O [Compound 14]    20.1 ± 2.3 s
2  CC(=O)Oc1ccccc1C(=O)O [ASA, Acetylicacid, reference compound]    19.6 ± 4.1 s

IN: State its Time of Reaction to Pain Stimulus (s) ± SEM for this molecule: COc1nc(C)cc2c1C(=O)N(CN1CCN(c3ccccc3Cl)CC1)C2=O [Compound 15]
OUT: 19.9 ± 3.9 s
